Can you tell me kcat/Km for the items I'm about to list?
- Substrate: O=c1[nH]c(=O)c2[nH]c(=O)[nH]c2[nH]1
- methodSummary: purified protein
- Assay type: biochemical, Latimeria menadoensis
- testSettings: 50 mM sodium borate pH 8.0, 30 °C, 15-120 µM uric acid

[
  {
    "protein": "L. menadoensis uricase S136C mutant (enzyme, UniProt M3XGK0 1-306, looked up, Uricase (urate oxidase) of Latimeria menadoensis, 306 amino acids, same construct as the wild type (pET20LM-UOX) with S136C by site-directed mutagenesis; His6 tag joined by two residues from the XhoI site, as in m1; source: E. coli BL21(DE3), purified (Ni-NTA IMAC, gel filtration); not shown: His6, C-terminal, kept) MSHYVSSTRFQKDTDVEFVRTGYGKNIVKVLHIKREGKTHYIKEVEVAVQLALKSRKDYLYGDNSDIIPTDTMKNTVHALAKLKGINTIEEFAMDICEHFLTSFNHVTRANTYVEEAPWKRMEKNEVKHVHAFIYCPEATRFCEVEHHQNEPPVVHSGIKDMKVLKTTQSGFEGFVKDRFTTLPEVTDRCFSTVIYSKWLYNRSKNIDFDAAWKTVYDVIIEKFAGPYECGEYSPSVQKTLYETQVLCLNRVPEIEEVEIVMPNKHYFTIDMSKIGIVNKDEVLLPLDNPSGNITGTVRRKAHSKL",
    "endpointValue": "1.47e+06 M⁻¹ s⁻¹"
  },
  {
    "protein": "L. menadoensis uricase, wild type (LM-UOX-6His) (enzyme, UniProt M3XGK0 1-306, looked up, Uricase (urate oxidase) of Latimeria menadoensis, 306 amino acids; synthetic cDNA amplified with primers from the start codon to the last codon (no stop codon), cloned NdeI/XhoI into pET20b(+); The His6 tag is joined to the protein by two residues from the XhoI site; also called WT; WT LM-UOX; source: E. coli BL21(DE3), purified (Ni-NTA IMAC, gel filtration); not shown: His6, C-terminal, kept) MSHYVSSTRFQKDTDVEFVRTGYGKNIVKVLHIKREGKTHYIKEVEVAVQLALKSRKDYLYGDNSDIIPTDTMKNTVHALAKLKGINTIEEFAMDICEHFLTSFNHVTRANTYVEEAPWKRMEKNEVKHVHAFIYSPEATRFCEVEHHQNEPPVVHSGIKDMKVLKTTQSGFEGFVKDRFTTLPEVTDRCFSTVIYSKWLYNRSKNIDFDAAWKTVYDVIIEKFAGPYECGEYSPSVQKTLYETQVLCLNRVPEIEEVEIVMPNKHYFTIDMSKIGIVNKDEVLLPLDNPSGNITGTVRRKAHSKL",
    "endpointValue": "1.62e+06 M⁻¹ s⁻¹"
  }
]

Next protein, please.
Can you share its kcat/Km? I mean this protein: L. menadoensis uricase D288C mutant (enzyme, UniProt M3XGK0 1-306, looked up, Uricase (urate oxidase) of Latimeria menadoensis, 306 amino acids, same construct as the wild type (pET20LM-UOX) with D288C by site-directed mutagenesis; His6 tag joined by two residues from the XhoI site, as in m1; source: E. coli BL21(DE3), purified (Ni-NTA IMAC, gel filtration); not shown: His6, C-terminal, kept) MSHYVSSTRFQKDTDVEFVRTGYGKNIVKVLHIKREGKTHYIKEVEVAVQLALKSRKDYLYGDNSDIIPTDTMKNTVHALAKLKGINTIEEFAMDICEHFLTSFNHVTRANTYVEEAPWKRMEKNEVKHVHAFIYSPEATRFCEVEHHQNEPPVVHSGIKDMKVLKTTQSGFEGFVKDRFTTLPEVTDRCFSTVIYSKWLYNRSKNIDFDAAWKTVYDVIIEKFAGPYECGEYSPSVQKTLYETQVLCLNRVPEIEEVEIVMPNKHYFTIDMSKIGIVNKDEVLLPLCNPSGNITGTVRRKAHSKL
340000 M⁻¹ s⁻¹

Data provenance: paper PMC6471336
